Measured values drawn from patent US11844794B2 for this set.

- measurementDescription: pharmacokinetics after oral administration to male Beagle dogs
- Assay type: in vivo, Beagle dog
- recordedConditions: male, Beagle (HsdRcc:DOBE), dog, plasma, po, 1.5 mg/kg, Plasma concentration of (+)-α-dihydrotetrabenazine, Male 2, oral 1.50 mg/kg (freebase equivalent), 4 h
experimentalReadout: concentration at 4 h (ng/mL)
Give bare numbers, in ng/mL.

Enquiry: Identify measured concentration at 4 h associated with COc1cc2c(cc1OC)[C@H]1C[C@@H](O)[C@H](CC(C)C)CN1CC2.O=C(O)CCC(=O)O [(+)-α-dihydrotetrabenazine succinate]
Return: 0.531

----------
- measurementDescription: pharmacokinetics after oral administration to male Beagle dogs
- Format: in vivo, Beagle dog
- recordedConditions: male, Beagle (HsdRcc:DOBE), dog, plasma, po, 1.5 mg/kg, Plasma concentration of (+)-α-dihydrotetrabenazine, Mean of 3 dogs, oral 1.50 mg/kg (freebase equivalent), 0 h (pre-dose); BLQ treated as zero
experimentalReadout: concentration at 0 h

Enquiry: Determine its reported concentration at 0 h: COc1cc2c(cc1OC)[C@H]1C[C@@H](O)[C@H](CC(C)C)CN1CC2.O=C(O)CCC(=O)O [(+)-α-dihydrotetrabenazine succinate]
Return: 0 ng/mL
